Assay read-out IC50 on MAGL (Homo sapiens, UniProt Q99685); records merged from the literature.
quantity: IC50 (nM)

>>> measuredvalue("O=C(c1ccc(-c2ccc(Br)cc2)cc1)N1CC(N2CCN(C(=O)c3cscn3)CC2)C1")
7.3
>>> measuredvalue("Cc1ccc2sc(C(=O)N3CC(N[C@H]4CCN(C(=O)c5cscn5)C4)C3)c(C(F)(F)F)c2c1")
205
>>> measuredvalue("Cc1cc(C2CN(C(=O)N3CC[C@@H]4OCC(=O)N[C@@H]4C3)C2)ccc1OC(F)(F)F")
0.8
>>> measuredvalue("O=C1CO[C@H]2CCN(C(=O)N3CC(Oc4cccc(N5CC6(CCC6)C5)c4Cl)C3)C[C@H]2N1")
20
>>> measuredvalue("O=C(c1ccc(Oc2cc(C(F)(F)F)ccn2)cc1)N1CC(N2CCN(C(=O)c3nccs3)CC2)C1")
7
>>> measuredvalue("O=C1CO[C@H]2CCN(C(=O)N3CC(CS(=O)(=O)c4ccc(C(F)(F)F)cc4Cl)C3)C[C@H]2N1")
655
>>> measuredvalue("Cc1ccc2oc(N3CCN(C(=O)c4ccc(-c5cn(CC(C)(C)C)nn5)cc4)CC3)nc2n1")
19
>>> measuredvalue("O=C1N[C@H](CCC(=O)N2CC(c3ccc(N4CC5(CCCC5)C4)cc3)C2)CO1")
1
>>> measuredvalue("CC1(C)CCN(c2ccc(C3CN(C(=O)N4CC[C@@H]5OCC(=O)N[C@@H]5C4)C3)cc2)C1")
0.4
>>> measuredvalue("O=C(c1cnc2ccc(Cl)cc2c1)N1CC(N2CCN(C(=O)c3nccs3)CC2)C1")
1600
>>> measuredvalue("CC(CCc1cnn[nH]1)C(=O)N1CC(c2ccc(C3(C(F)(F)F)CC3)cc2)C1 (stereo not drawn)")
59
>>> measuredvalue("O=C1CO[C@H]2CCN(C(=O)N3CC(OCc4ccc(OC(F)(F)F)cc4)C3)C[C@H]2N1")
23.6
>>> measuredvalue("Cc1c(C(=O)N2CCN(C3CN(C(=O)c4cc[nH]c4)C3)CC2)sc2cc(C(F)(F)F)ccc12")
384

---

Here is a set of compounds with reported pIC50 for MAGL (Homo sapiens), compiled from the literature.
pIC50: −log10 of the molar value.
quantity: pIC50

>>> measuredvalue("O=C(c1ccc(-c2cccc(C(F)(F)F)c2)cc1)N1CC(N2CCN(C(=O)c3cocn3)CC2)C1")
7.96
>>> measuredvalue("O=C(c1ccc(CS(=O)(=O)c2cccc(C(F)(F)F)c2)cc1)N1CC(N2CCN(C(=O)c3nccs3)CC2)C1")
6.24
>>> measuredvalue("COc1cc(-n2ccc3cc(C(=O)N4CC(N5CCN(C(=O)c6ccccc6)CC5)C4)ccc32)ccc1C#N")
7.21
>>> measuredvalue("O=C(c1cscn1)N1CCN(C2CN(C(=O)c3ccc(-c4ccc(F)c(Cl)c4)cc3Cl)C2)CC1")
7.72
>>> measuredvalue("O=C1CO[C@H]2CCN(C(=O)N3CC(c4ccc(-c5ccc(F)cc5Cl)cc4)C3)C[C@H]2N1")
10.00
>>> measuredvalue("O=C1CO[C@H]2CCN(C(=O)N3CC(OCc4ccc(S(F)(F)(F)(F)F)cc4F)C3)C[C@H]2N1")
7.80
>>> measuredvalue("O=C(c1ccc2c(c1)Sc1ccccc1O2)N1CC(N2CCN(C(=O)c3ccc[nH]3)CC2)C1")
7.66

---

The entries that follow carry IC50 values tested on MAGL (Homo sapiens), drawn from several published reports.
quantity: IC50 (nM)

>>> measuredvalue("COc1cc(OC)c(Cl)c(C(=O)N2CCN3C[C@@H](c4ccc(F)c(Cl)c4)OC[C@@H]3C2)c1")
51.2
>>> measuredvalue("O=C(c1ccc2c(c1)[nH]c(=O)n2-c1ccc(F)cc1)N1CC(N2CCN(C(=O)c3nccs3)CC2)C1")
174
>>> measuredvalue("O=C(c1cccc(-c2ccn[nH]2)c1Cl)N1CCN2C[C@@](O)(c3ccc(C(F)(F)F)cn3)CC[C@@H]2C1")
11.5
>>> measuredvalue("Cc1ccc(-c2ccc(C3CN(C(=O)N4CC[C@@H]5OCC(=O)N[C@@H]5C4)C3)cc2)cc1")
1
>>> measuredvalue("Cc1c(C(=O)N2CC(N3CCN(C(=O)c4cscn4)CC3)C2)sc2cc(F)ccc12")
306
>>> measuredvalue("O=C1CO[C@H]2CCN(C(=O)N3C[C@@H]4[C@H](C3)[C@H]4c3ccn(-c4ccc(F)c(C(F)(F)F)c4)n3)C[C@H]2N1")
45.3
>>> measuredvalue("O=C(c1ccc2c(ccn2CC(F)F)c1)N1CC(N[C@H]2CCN(C(=O)c3nccs3)C2)C1")
1390
>>> measuredvalue("CC(C)(C)OC(=O)NCCOCCC(=O)NCCOc1cccc([C@@H](c2ccccc2)C2CCN(C(=O)N3CC[C@@H]4OCC(=O)N[C@@H]4C3)CC2)c1 (single isomer, unassigned)")
3.2
>>> measuredvalue("Cn1nc(OC(c2ccc(F)cc2)C2CCN(C(=O)N3CC[C@@H]4OCC(=O)N[C@@H]4C3)CC2)cc1C(F)(F)F (some centres unmarked)")
1
>>> measuredvalue("O=C1CO[C@H]2CCN(C(=O)N3CCC(c4cccc(Br)c4)C3)C[C@H]2N1 (single isomer, unassigned)")
162
>>> measuredvalue("O=C1CO[C@H]2CCN(C(=O)N3CC(OCc4ccc(OC(F)(F)F)c(F)c4)C3)C[C@H]2N1")
53
>>> measuredvalue("N#Cc1cc(C(F)(F)F)ccc1OC1CCN(C(=O)N2CC[C@@H]3OCC(=O)N[C@@H]3C2)CC1")
82

---

pIC50: −log10 of the molar value.
// read-out pIC50, gathered for MAGL (Homo sapiens) from published studies
quantity: pIC50

>>> measuredvalue("CC(C)(C)c1ccc(C2CN(C(=O)CCC3CCC(=O)N3)C2)cc1 (single isomer, unassigned; (-))")
6.56
>>> measuredvalue("N#CC1(c2ccc(C#CC3CN(C(=O)N4CC[C@@H]5OCC(=O)N[C@@H]5C4)C3)cc2)CC1")
7.25
>>> measuredvalue("O=C1N[C@H](CCC(=O)N2CC(c3ccc(N4CCC(C(F)(F)F)C4)nc3)C2)CO1 (stereo partly shown)")
7.85
>>> measuredvalue("O=C1CO[C@H]2CCN(C(=O)N3CC(c4ccc(Cl)nc4)C3)C[C@H]2N1")
5.37

---

Compiled notes: published IC50 values involving MAGL (Homo sapiens).
Cut-off 700 nM on IC50: below means true (1), at or above means false (0).

>>> assignedcategory("CS(=O)(=O)c1cc(F)cc(CC2CC3(C2)CN(C(=O)CC[C@@H]2COC(=O)N2)C3)c1")
"true (1)"
>>> assignedcategory("O=C(c1ccc2c(c1)[nH]c(=O)n2-c1ccc(F)c(F)c1)N1CC(N2CCN(C(=O)c3nccs3)CC2)C1")
"true (1)"
>>> assignedcategory("Cc1c(C(=O)N2CC(N[C@H]3CCN(C(=O)c4ccccc4)C3)C2)sc2ccc(-c3cccc(F)c3)cc12")
"true (1)"
>>> assignedcategory("CS(=O)(=O)Nc1ccn(C(=O)N2CCC3(CCCN3Cc3cc(Cl)cc(N4CCCC4)c3)CC2)n1")
"true (1)"
>>> assignedcategory("O=C(c1nccs1)N1CC[C@H](NC2CN(C(=O)c3sc4cc(Cl)ccc4c3C(F)(F)F)C2)C1")
"true (1)"
>>> assignedcategory("O=C(c1ccc2c(-c3ccccc3)ncnc2c1)N1CC(N[C@H]2CCN(C(=O)c3ccccc3)C2)C1")
"false (0)"
>>> assignedcategory("Cc1c(C(=O)N2CC(N3CCN(C(=O)c4nccs4)CC3)C2)sc2nc3n(c(=O)c12)CCC3")
"false (0)"
>>> assignedcategory("COc1cccc(C(=O)N2CCN3C[C@@H](c4cccc(C(F)(F)F)n4)OC[C@@H]3C2)c1Cl (single isomer, unassigned)")
"false (0)"
>>> assignedcategory("O=C1CO[C@H]2CCN(C(=O)N3CC(C#Cc4ccc(C5CC5)cc4)C3)C[C@H]2N1")
"true (1)"
>>> assignedcategory("O=C(c1ccc(Oc2cc(C(F)(F)F)ccn2)cc1)N1CC(N2CCN(C(=O)c3cscn3)CC2)C1")
"false (0)"
>>> assignedcategory("COc1cccc(C(=O)N2CCN3C[C@@H](c4ccc(-c5cnco5)c(Cl)c4)OC[C@@H]3C2)c1Cl")
"true (1)"
>>> assignedcategory("O=C1CO[C@H]2CCN(C(=O)N3CCC(Oc4cc(-n5cncn5)cc(C(F)(F)F)c4)CC3)C[C@H]2N1")
"false (0)"
>>> assignedcategory("O=C(c1ccc2c(ccn2-c2ccc(F)cc2)c1)N1CC(N2CCN(c3nccs3)C(=O)C2)C1")
"true (1)"
>>> assignedcategory("O=C(c1ccccc1)N1CCN(C2CN(C(=O)c3ccc(Cc4cccc(C(F)(F)F)c4)cc3)C2)CC1")
"true (1)"
>>> assignedcategory("O=C(c1ccc(Cc2cccc(C(F)(F)F)c2)cc1)N1CC(N2CCN(C(=O)c3cscn3)CC2)C1")
"true (1)"

---

pIC50: −log10 of the molar value.
pIC50 for MAGL (Homo sapiens, UniProt Q99685) - collated from the literature.
quantity: pIC50

>>> measuredvalue("O=C1CCC(CCC(=O)N2CC(OCc3ccc(C(F)(F)F)cc3F)C2)N1 (single isomer, unassigned; (-))")
5.40
>>> measuredvalue("Cc1cc(Oc2ccc(C3CN(C(=O)N4CC[C@@H]5OCC(=O)N[C@@H]5C4)C3)cc2)c(C)nn1")
6.91
>>> measuredvalue("CC(Oc1ccc(C(F)(F)F)cc1F)C1CN(C(=O)N2CC[C@@H]3OCC(=O)N[C@@H]3C2)C1 (stereo partly shown)")
7.82
>>> measuredvalue("Cc1c(C(=O)N2CC(N3CCN(C(=O)c4nccs4)CC3)C2)n(C)c2ccc(Cl)cc12")
7.23
